Reported MIC95 values are given for each entry in this list.
System: Providencia rettgeri
PROTOCOL_DETAILS: Antibacterial activity against Providencia rettgeri DRDE after 24 hrs by broth microdilution method
Assay type: functional

{"COMPOUND": "COc1cc(/C=C/C(=O)C2=C(/C=C/c3ccc(O)c(OC)c3)N=C3Sc4ccccc4N3C2c2ccc(O)c(OC)c2)ccc1O (centres undefined)", "MIC95, uM/ml": 10}
{"COMPOUND": "O=C(O)c1cn(C2CC2)c2cc(N3CCNCC3)c(F)cc2c1=O [CIPROFLOXACIN]", "MIC95, uM/ml": 1.25}
{"COMPOUND": "COc1cc(/C=C/C(=O)C2=C(/C=C/c3ccc(O)c(OC)c3)N=C3Sc4ccccc4N3C2c2ccc([N+](=O)[O-])cc2)ccc1O (centres undefined)", "MIC95, uM/ml": 10}
{"COMPOUND": "COc1cc(/C=C/c2cc(/C=C/c3ccc(O)c(OC)c3)n(C(N)=O)n2)ccc1O", "MIC95, uM/ml": 2.5}

Each recorded value in this set is attributed to ChEMBL document CHEMBL2203144.
